# credit: ChEMBL document CHEMBL3885861

Species on record: Rattus norvegicus
assay.text: Open TG-GATES - Regimen: Daily Repeat
Type: toxicity, organism-based, Sprague-Dawley
Design: regimen Daily Repeat, gender Male, age 6 weeks
run.parameters: in vivo, po, 0 mg/kg, […], tissue Blood, route gavage, dose level Control, time 14 day
reported.metric: Fbg (mg/dL)
Expressed in mg/dL, but write only the number.

Example entries and their recorded answers appear below.
1) CSc1ccc2c(c1)N(CCC1CCCCN1C)c1ccccc1S2 (stereo unspecified)    243.4
2) CN(C)CCC=C1c2ccccc2CCc2ccccc21    294.4
3) NC(=O)N/N=C/c1ccc([N+](=O)[O-])o1    303
4) COc1ccc(Cc2nccc3cc(OC)c(OC)cc23)cc1OC    316.8
5) CC(=O)Oc1ccccc1C(=O)O    216.8

Then this compound:
Which Fbg value is on record for Clc1ccccc1CN1CCc2sccc2C1 ? 220.6
